Entries and their MFI at 0 nM (background) values follow.
Biological target: T1, Cyno CD33 full length (cynomolgus monkey)
T1 construct: also called cyCD33
Assay: flow cytometry on HEK293F cells expressing cyno CD33
Procedure: The purified antibodies were assessed for binding to stably transfected HEK293F cells expressing human CD33 or cyno CD33 (generation described above) along with the parental HEK293F as negative control. […] 30 μl running buffer containing Sytox Green live/dead dye (ThermoFisher) was added to all wells with cells and the plates were read on an iQue IntelliCyt flow cytometer. […] Antibody binding was assessed by the mean fluorescence intensity in the AF647 channel. […]
The answer consists of two parts: a number and, after it, its unit.

Worked examples follow.
binder="C33B915 (antibody, V domains shown, OMNIMouse-derived anti-CD33 mAb; same V regions as C33B907; also called C33H255/C33L121; C33F553) VH: EVQLVESGGGLVQPGRSLRLSCAASGFTFDDYAMHWVRQVPGEGLEWVSGISWNGGDMVYADSVKGRFTISRDNAKNSLYLQMNSLRPEDTALYYCVKDMPYFDFLTGSDYYYYGMDVWGQGTTVTVSS VL: SYELTQPPSVSVSPGQTASITCSGDNLGNEHVCWYHQKPGQSPVLVIYQNNKRPSGIPERFSGSNSGNTATLSISGTQATDEADYYCQAWDSTTAVFGGGTKLTVL" recorded_measurement="114 MFI"
binder="C33B910 (antibody, V domains shown, OMNIMouse-derived anti-CD33 mAb; same V regions as C33B902; also called C33H250/C33L116) VH: EVQLVESGGGLVQPGRSLRLSCAGSGFTFDDYAIHWVRQAPGKGLEWVSGLSWNGGNIGYADSVKGRFTISRDNAKNSLYLQLNSLKTEDTAFYYCAKDSPYGDYFDYWGQGTLVTVSS VL: DIQMTQSPSSEWASVGDRVTITCRASQGISSWLAWYQQKPGKAPKLLIYGASSWQSGVPSRFSGSGSGTDFTLTISSLQPEDFATYYCQQDNSFPYTFGQGTKLEIK" recorded_measurement="176 MFI"

Below: the item to evaluate.
Record C33B909 (antibody, V domains shown, OMNIMouse-derived anti-CD33 mAb; same V regions as C33B901; The OMNIMouse mAbs were cloned into both IgG1 and IgG4 PAA; also called C33H249/C33L115) VH: EVQLVESGGGLVQPGRSLRLSCVASGFTFDDYAIHWVRQAPGKGLEWVSGLSWNGGNIGYADSVKGRFTISRDNAKNSLYLQMNSLKTEDTAFYYCTKDTPYGDYFDYWGQGTLVTVSS VL: DIQMTQSPSSVWASVGDRVTITCRASQGISSWLAWYQQQPGKAPNLLIYRSSSLQSGVPSRFSGSGSGTDFTLTISSLQPEDFATYYCQQDNSFPYTFGQGTKLEIK , field MFI at 0 nM (background): 124 MFI
